# Type: in vivo, healthy Chinese volunteers
# Condition Description: human, plasma, oral, 10 mg, Tmax, geometric mean, Fed (high-fat diet); single 10 mg EMPA
Observable: Tmax (h)
Please reply with the bare figure in h and do not write the unit itself.

Challenge: Form field: reported Tmax of OC[C@H]1O[C@@H](c2ccc(Cl)c(Cc3ccc(O[C@H]4CCOC4)cc3)c2)[C@H](O)[C@@H](O)[C@@H]1O
Response given: 1.67

====

# Assay type: in vivo, healthy Chinese volunteers
# Condition Description: human, plasma, oral, 10 mg, Plasma concentrations, Fed (n = 58), high-fat diet; 10 h after 10 mg EMPA
Observable: concentration at 10 h (ng/mL)
Please reply with the bare figure in ng/mL and do not write the unit itself.

Challenge: Form field: reported concentration at 10 h of OC[C@H]1O[C@@H](c2ccc(Cl)c(Cc3ccc(O[C@H]4CCOC4)cc3)c2)[C@H](O)[C@@H](O)[C@@H]1O [EMPA, empagliflozin]
Response given: 32.7

====

# Assay type: in vivo, healthy Chinese volunteers
# Condition Description: human, plasma, oral, 10 mg, Plasma concentrations, Fed (n = 58), high-fat diet; 48 h after 10 mg EMPA
Observable: concentration at 48 h (ng/mL)
Please reply with the bare figure in ng/mL and do not write the unit itself.

Challenge: Form field: reported concentration at 48 h of OC[C@H]1O[C@@H](c2ccc(Cl)c(Cc3ccc(O[C@H]4CCOC4)cc3)c2)[C@H](O)[C@@H](O)[C@@H]1O [EMPA, empagliflozin]
Response given: 2.2

====

# Format: in vivo, healthy Chinese volunteers
# Condition Description: human, plasma, oral, 10 mg, Plasma concentrations, Fed (n = 58), high-fat diet; 1 h after 10 mg EMPA
Observable: concentration at 1 h (ng/mL)
Please reply with the bare figure in ng/mL and do not write the unit itself.

Challenge: Form field: reported concentration at 1 h of OC[C@H]1O[C@@H](c2ccc(Cl)c(Cc3ccc(O[C@H]4CCOC4)cc3)c2)[C@H](O)[C@@H](O)[C@@H]1O
Response given: 72.9

====

# Format: in vivo, healthy Chinese volunteers
# Condition Description: human, plasma, oral, 10 mg, Plasma concentrations, Fasting (n = 56); 48 h after 10 mg EMPA
Observable: concentration at 48 h

Challenge: Form field: reported concentration at 48 h of OC[C@H]1O[C@@H](c2ccc(Cl)c(Cc3ccc(O[C@H]4CCOC4)cc3)c2)[C@H](O)[C@@H](O)[C@@H]1O
Response given: 2.2 ng/mL

====

# Type: in vivo, healthy Chinese volunteers
# Condition Description: human, plasma, oral, 10 mg, Plasma concentrations, Fed (n = 58), high-fat diet; 3 h after 10 mg EMPA
Observable: concentration at 3 h (ng/mL)
Please reply with the bare figure in ng/mL and do not write the unit itself.

Challenge: Form field: reported concentration at 3 h of OC[C@H]1O[C@@H](c2ccc(Cl)c(Cc3ccc(O[C@H]4CCOC4)cc3)c2)[C@H](O)[C@@H](O)[C@@H]1O [EMPA, empagliflozin]
Response given: 79.4

====

# Assay type: in vivo, healthy Chinese volunteers
# Condition Description: human, plasma, oral, 10 mg, Plasma concentrations, Fasting (n = 56); 1 h after 10 mg EMPA
Observable: concentration at 1 h (ng/mL)
Please reply with the bare figure in ng/mL and do not write the unit itself.

Challenge: Form field: reported concentration at 1 h of OC[C@H]1O[C@@H](c2ccc(Cl)c(Cc3ccc(O[C@H]4CCOC4)cc3)c2)[C@H](O)[C@@H](O)[C@@H]1O
Response given: 166

====

# Type: in vivo, healthy Chinese volunteers
# Condition Description: human, plasma, oral, 10 mg, AUC0-∞, geometric mean, Fasting; single 10 mg EMPA
Observable: AUC(0-inf) (ng·h/mL)
Please reply with the bare figure in ng·h/mL and do not write the unit itself.

Challenge: Form field: reported AUC(0-inf) of OC[C@H]1O[C@@H](c2ccc(Cl)c(Cc3ccc(O[C@H]4CCOC4)cc3)c2)[C@H](O)[C@@H](O)[C@@H]1O [EMPA, empagliflozin]
Response given: 1330

====

# Format: in vivo, healthy Chinese volunteers
# Condition Description: human, plasma, oral, 10 mg, Plasma concentrations, Fed (n = 58), high-fat diet; 24 h after 10 mg EMPA
Observable: concentration at 24 h (ng/mL)
Please reply with the bare figure in ng/mL and do not write the unit itself.

Challenge: Form field: reported concentration at 24 h of OC[C@H]1O[C@@H](c2ccc(Cl)c(Cc3ccc(O[C@H]4CCOC4)cc3)c2)[C@H](O)[C@@H](O)[C@@H]1O
Response given: 9.3

====

# Format: in vivo, healthy Chinese volunteers
# Condition Description: human, plasma, oral, 10 mg, Plasma concentrations, Fasting (n = 56); 4 h after 10 mg EMPA
Observable: concentration at 4 h (ng/mL)
Please reply with the bare figure in ng/mL and do not write the unit itself.

Challenge: Form field: reported concentration at 4 h of OC[C@H]1O[C@@H](c2ccc(Cl)c(Cc3ccc(O[C@H]4CCOC4)cc3)c2)[C@H](O)[C@@H](O)[C@@H]1O
Response given: 104

====

# Type: in vivo, healthy Chinese volunteers
# Condition Description: human, plasma, oral, 10 mg, Plasma concentrations, Fed (n = 58), high-fat diet; 2.25 h after 10 mg EMPA
Observable: concentration at 2.25 h (ng/mL)
Please reply with the bare figure in ng/mL and do not write the unit itself.

Challenge: Form field: reported concentration at 2.25 h of OC[C@H]1O[C@@H](c2ccc(Cl)c(Cc3ccc(O[C@H]4CCOC4)cc3)c2)[C@H](O)[C@@H](O)[C@@H]1O [EMPA, empagliflozin]
Response given: 91.5

====

# Assay type: in vivo, healthy Chinese volunteers
# Condition Description: human, plasma, oral, 10 mg, Plasma concentrations, Fed (n = 58), high-fat diet; 1.25 h after 10 mg EMPA
Observable: concentration at 1.25 h (ng/mL)
Please reply with the bare figure in ng/mL and do not write the unit itself.

Challenge: Form field: reported concentration at 1.25 h of OC[C@H]1O[C@@H](c2ccc(Cl)c(Cc3ccc(O[C@H]4CCOC4)cc3)c2)[C@H](O)[C@@H](O)[C@@H]1O
Response given: 87.4

====

# Assay type: in vivo, healthy Chinese volunteers
# Condition Description: human, plasma, oral, 10 mg, Plasma concentrations, Fed (n = 58), high-fat diet; 36 h after 10 mg EMPA
Observable: concentration at 36 h (ng/mL)
Please reply with the bare figure in ng/mL and do not write the unit itself.

Challenge: Form field: reported concentration at 36 h of OC[C@H]1O[C@@H](c2ccc(Cl)c(Cc3ccc(O[C@H]4CCOC4)cc3)c2)[C@H](O)[C@@H](O)[C@@H]1O
Response given: 3.2

====

# Assay type: in vivo, healthy Chinese volunteers
# Condition Description: human, plasma, oral, 10 mg, Plasma concentrations, Fasting (n = 56); 36 h after 10 mg EMPA
Observable: concentration at 36 h (ng/mL)
Please reply with the bare figure in ng/mL and do not write the unit itself.

Challenge: Form field: reported concentration at 36 h of OC[C@H]1O[C@@H](c2ccc(Cl)c(Cc3ccc(O[C@H]4CCOC4)cc3)c2)[C@H](O)[C@@H](O)[C@@H]1O
Response given: 3.5

====

# Assay type: in vivo, healthy Chinese volunteers
# Condition Description: human, plasma, oral, 10 mg, Plasma concentrations, Fasting (n = 56); 8 h after 10 mg EMPA
Observable: concentration at 8 h (ng/mL)
Please reply with the bare figure in ng/mL and do not write the unit itself.

Challenge: Form field: reported concentration at 8 h of OC[C@H]1O[C@@H](c2ccc(Cl)c(Cc3ccc(O[C@H]4CCOC4)cc3)c2)[C@H](O)[C@@H](O)[C@@H]1O
Response given: 52.6

====

# Type: in vivo, healthy Chinese volunteers
# Condition Description: human, plasma, oral, 10 mg
Observable: k el (s⁻¹)
Please reply with the bare figure in s⁻¹ and do not write the unit itself.

Challenge: Form field: reported k el of OC[C@H]1O[C@@H](c2ccc(Cl)c(Cc3ccc(O[C@H]4CCOC4)cc3)c2)[C@H](O)[C@@H](O)[C@@H]1O
Response given: 2.22e-05

====

# Format: in vivo, healthy Chinese volunteers
# Condition Description: human, plasma, oral, 10 mg, Plasma concentrations, Fed (n = 58), high-fat diet; 8 h after 10 mg EMPA
Observable: concentration at 8 h (ng/mL)
Please reply with the bare figure in ng/mL and do not write the unit itself.

Challenge: Form field: reported concentration at 8 h of OC[C@H]1O[C@@H](c2ccc(Cl)c(Cc3ccc(O[C@H]4CCOC4)cc3)c2)[C@H](O)[C@@H](O)[C@@H]1O
Response given: 40.5

====

# Format: in vivo, healthy Chinese volunteers
# Condition Description: human, plasma, oral, 10 mg, Cmax, geometric mean, Fasting; single 10 mg EMPA
Observable: Cmax

Challenge: Form field: reported Cmax of OC[C@H]1O[C@@H](c2ccc(Cl)c(Cc3ccc(O[C@H]4CCOC4)cc3)c2)[C@H](O)[C@@H](O)[C@@H]1O [EMPA, empagliflozin]
Response given: 187 ng/mL
